The molecules listed here are annotated with their Dmax.
Target: WT LRRK2 (Homo sapiens)
Construct: endogenous in cells; host or cells: HEK293 cells with HiBit knocked into the endogenous LRRK2 gene, stably expressing firefly luciferase
Sequence (Q5S007 whole entry): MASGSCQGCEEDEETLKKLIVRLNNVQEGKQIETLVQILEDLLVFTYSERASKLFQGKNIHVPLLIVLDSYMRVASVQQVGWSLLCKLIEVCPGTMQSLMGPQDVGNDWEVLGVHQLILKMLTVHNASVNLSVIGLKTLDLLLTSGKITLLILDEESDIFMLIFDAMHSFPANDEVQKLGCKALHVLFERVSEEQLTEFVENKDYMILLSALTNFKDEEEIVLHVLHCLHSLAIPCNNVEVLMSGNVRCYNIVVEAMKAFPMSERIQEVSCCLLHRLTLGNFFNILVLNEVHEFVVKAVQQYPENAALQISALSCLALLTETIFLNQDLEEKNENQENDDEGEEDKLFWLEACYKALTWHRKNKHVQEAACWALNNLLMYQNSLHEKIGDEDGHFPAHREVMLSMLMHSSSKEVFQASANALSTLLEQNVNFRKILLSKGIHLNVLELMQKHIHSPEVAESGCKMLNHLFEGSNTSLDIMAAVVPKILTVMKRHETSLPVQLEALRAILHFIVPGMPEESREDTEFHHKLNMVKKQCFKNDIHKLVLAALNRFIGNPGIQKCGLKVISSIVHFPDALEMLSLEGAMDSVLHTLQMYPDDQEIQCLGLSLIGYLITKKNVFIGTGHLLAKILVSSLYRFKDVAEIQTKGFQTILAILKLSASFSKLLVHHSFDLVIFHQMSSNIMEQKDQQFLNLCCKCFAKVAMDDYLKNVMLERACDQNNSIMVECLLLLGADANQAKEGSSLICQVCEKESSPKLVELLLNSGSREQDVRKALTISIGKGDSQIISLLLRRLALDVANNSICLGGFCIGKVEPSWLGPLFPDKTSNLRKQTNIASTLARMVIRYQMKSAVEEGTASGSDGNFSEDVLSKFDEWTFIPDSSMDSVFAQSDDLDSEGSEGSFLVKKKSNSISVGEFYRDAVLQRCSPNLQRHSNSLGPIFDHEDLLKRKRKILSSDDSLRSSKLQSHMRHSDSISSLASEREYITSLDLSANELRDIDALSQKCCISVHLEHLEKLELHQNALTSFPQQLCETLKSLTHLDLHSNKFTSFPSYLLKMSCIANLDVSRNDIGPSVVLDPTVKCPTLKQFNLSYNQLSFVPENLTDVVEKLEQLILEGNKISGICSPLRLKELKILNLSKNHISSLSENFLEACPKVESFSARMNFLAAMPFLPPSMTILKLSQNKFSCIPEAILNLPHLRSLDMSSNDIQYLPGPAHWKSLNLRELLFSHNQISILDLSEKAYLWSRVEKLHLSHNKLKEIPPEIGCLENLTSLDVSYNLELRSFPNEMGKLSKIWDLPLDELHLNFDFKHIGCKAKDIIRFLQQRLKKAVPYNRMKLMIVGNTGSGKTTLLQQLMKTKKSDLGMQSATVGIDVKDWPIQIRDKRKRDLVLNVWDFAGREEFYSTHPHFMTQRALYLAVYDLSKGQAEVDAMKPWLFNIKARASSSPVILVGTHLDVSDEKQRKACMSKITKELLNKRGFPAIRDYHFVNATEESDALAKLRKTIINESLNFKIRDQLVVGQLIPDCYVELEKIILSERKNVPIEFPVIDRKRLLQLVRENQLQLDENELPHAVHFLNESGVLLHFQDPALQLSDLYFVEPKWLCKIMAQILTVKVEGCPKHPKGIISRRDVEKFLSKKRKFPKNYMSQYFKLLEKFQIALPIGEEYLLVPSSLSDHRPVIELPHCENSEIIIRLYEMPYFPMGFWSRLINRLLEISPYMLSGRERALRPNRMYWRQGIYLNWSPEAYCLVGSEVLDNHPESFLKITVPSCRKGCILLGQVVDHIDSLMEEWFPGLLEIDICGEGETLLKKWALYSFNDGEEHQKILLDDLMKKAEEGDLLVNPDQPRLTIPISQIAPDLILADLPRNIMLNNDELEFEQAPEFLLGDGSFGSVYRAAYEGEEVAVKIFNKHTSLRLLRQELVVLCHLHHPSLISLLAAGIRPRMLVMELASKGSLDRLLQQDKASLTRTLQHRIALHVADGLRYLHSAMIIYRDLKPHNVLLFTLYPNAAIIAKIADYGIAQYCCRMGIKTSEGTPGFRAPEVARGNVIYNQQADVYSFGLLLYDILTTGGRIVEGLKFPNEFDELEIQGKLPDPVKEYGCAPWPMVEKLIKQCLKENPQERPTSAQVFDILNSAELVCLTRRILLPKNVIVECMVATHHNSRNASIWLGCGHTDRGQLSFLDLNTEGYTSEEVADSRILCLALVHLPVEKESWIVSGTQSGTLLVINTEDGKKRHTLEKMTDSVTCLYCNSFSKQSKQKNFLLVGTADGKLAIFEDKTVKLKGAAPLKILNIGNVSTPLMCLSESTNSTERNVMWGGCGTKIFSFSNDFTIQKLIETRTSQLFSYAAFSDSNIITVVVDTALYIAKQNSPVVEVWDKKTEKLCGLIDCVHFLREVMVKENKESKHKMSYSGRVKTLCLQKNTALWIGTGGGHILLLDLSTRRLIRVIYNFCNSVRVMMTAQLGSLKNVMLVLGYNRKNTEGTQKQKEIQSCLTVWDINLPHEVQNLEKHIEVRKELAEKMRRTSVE
Experiment: LRRK2 degradation HiBit assay in HEK293 cells (Nano-Glo Dual-Luciferase)
Type: cell-based
Conditions: HiBit-tagged LRRK2 in HEK293 cells, 24 hours compound treatment

# MOLECULE, Dmax
measured = [
    ("CC1(Cc2ccc3[nH]nc(-c4cc(N5CCC(CN6CCN(CC7CCN(c8ccc9c(c8F)CN(C8CCC(=O)NC8=O)C9=O)CC7)CC6)CC5)ncn4)c3c2)CC1 (stereo not shown)", "50 to 70%"),
    ("CC1(Oc2ccc3[nH]nc(-c4cc(N5CCO[C@@H](CN6CCN(CC7CCN(c8ccc9c(c8F)CN(C8CCC(=O)NC8=O)C9=O)CC7)CC6)C5)ncn4)c3c2)CC1 (stereo partly shown)", "50 to 70%"),
    ("CC1(Cc2ccc3[nH]nc(-c4cc(N5CCC(OC6CCN(CC7CCN(c8ccc9c(c8F)CN(C8CCC(=O)NC8=O)C9=O)CC7)CC6)CC5)ncn4)c3c2)CC1 (stereo not shown)", "< 50%"),
    ("Cc1cc(N2CCC(O[C@H]3CC[C@H](CN4CCN(c5cc(-c6n[nH]c7ccc(OC8(C)CC8)cc67)ncn5)CC4)CC3)CC2)c(F)c2c1C(=O)N(C1CCC(=O)NC1=O)C2 (stereo partly shown)", "≥ 70%"),
    ("CC1(Oc2ccc3[nH]nc(-c4cc(N5CCN(C[C@@H]6CCN(CC7CCN(c8ccc9c(c8F)CN(C8CCC(=O)NC8=O)C9=O)CC7)C[C@@H]6F)CC5)ncn4)c3c2)CC1 (stereo partly shown)", "50 to 70%"),
    ("CC1(Oc2ccc3[nH]nc(-c4cc(N5CCN(CC(F)(F)C6CCN(CC7CCN(c8ccc9c(c8F)CN(C8CCC(=O)NC8=O)C9=O)CC7)CC6)CC5)ncn4)c3c2)CC1 (stereo not shown)", "50 to 70%"),
]

Now examine the next entry.
Q: Consider the molecule shown here: CC1(Oc2ccc3[nH]nc(-c4cc(N5CCO[C@H](CN6CCN(CC7CCN(c8ccc9c(c8F)CN(C8CCC(=O)NC8=O)C9=O)CC7)CC6(C)C)C5)ncn4)c3c2)CC1 (stereo partly shown) What is its recorded Dmax?
Ans: 50 to 70%
